Measured values drawn from the nanobody polyreactivity screen of Harvey et al. (2022) for this set.

assay: yeast display, Sf9 membrane polyspecificity reagent, FACS + sequencing; frameworks hold sequencing errors

| MACROMOLECULE_SEQUENCE | polyreactivity (PSR sort gate) |
| --- | --- |
| QVQLVESGGGLDQAGGSLRLSCAASGSISGYNAMGWYRQAPGKERELVASIRYTGARSYYADSGKGRFTISRDNAKNTVYLQMNSLKPEDTAVYYCAADSAYDVTSYGYWGQGTQVTVSS | low polyreactivity |
| QVQLVESGGGLVQAGGSLRLSCAASGFTFYFYAMGWYRQAPGKETELVAGISRGGSTTYADSVTGRFTISRDNAKNTVYLQRNSLKPHDTAVYYCAVGYDIVRYSYSPFYRYDYWGQGTQVTVSS | low polyreactivity |

====

assay: yeast display, Sf9 membrane polyspecificity reagent, FACS + sequencing; frameworks hold sequencing errors
PARAMETER_MEASURED: polyreactivity (PSR sort gate)

| MACROMOLECULE_SEQUENCE | RESULT_VALUE |
| --- | --- |
| QVQLVESGGGLVQAGGSLRLSCAASGSTFVRYVMGWYRQAPGKERELVAAISRRGGSTYYADSVKGRFTISRDNAKNTVYLQMNSLKPEDTAVYYCARTVGYRTLLESDSWGQGTQVTVSS | high polyreactivity |
| QVQIVESGGGLVQAGGSLRLSCAASGRTYKYYAMGWYRQAPGKERELDAGITSGSSTSYADSVKGRFTISRDNAKNTVYLQMNSLKPEDTAVYYCAAGIYPYRYDYWGQGTQVTVSS | high polyreactivity |
| QVQLVESGGGLVQAGGSLRLSCAASGSTFFLYAMGWYRQAPGKERELVAAISSGGSTNYADSVKGRFTISRDNAKNTVYLQMNSLKPEDTAVYYCAADAVRSHDYWGQGTQVTVSS | low polyreactivity |
| QVQLVESGGGLVQAGGSLRLSCAASGFTIRRNAMGWYRQAPGKERELVAAISRSGGSTYADSVKGRFTISRDNAKNTVYLQMNSLKPEDTAVYYFASDHSYYRYTYTALIAEFYYWGQGTQVTVSS | low polyreactivity |
| QVQLVESGGGLVQAGGSLRFSCAASGFTFPYYAMGWYRQAPGKERELVAAITGRGGSSYYADSVKGRFTISRDNAKNTVYLQMNSLKPEDTAVYYCAARRSSRSKRLNYWGQGTQVTVSS | high polyreactivity |

====

experiment: yeast display, Sf9 membrane polyspecificity reagent, FACS + sequencing; frameworks hold sequencing errors
PARAMETER_MEASURED: polyreactivity (PSR sort gate)

| MACROMOLECULE_SEQUENCE | PARAMETER_MEASURED | RESULT_VALUE |
| --- | --- | --- |
| QVQLVESGGGLVQVGGSLRLSCAASGITLSYYAMGWYRQAPGKERELVASITVSRTSTYYADSVKGRFTISRDNAKNTVYLQMNSLKPEDTAVYYCAAYAYQYRFSGYGYWGQGTQVTVSS | polyreactivity (PSR sort gate) | low polyreactivity |
| QVQLVESGGGLVQAGGSLRLSCAASGGIFPYYVMGWYRQAPGKERELVAAINSGGTTYYADSVKGRFTISRDNAKNTVYLQMNSLKPEDTAVYYCAAYYAGFGYNYWGQGTQVTVSS | polyreactivity (PSR sort gate) | low polyreactivity |
| QVQLVESGGGLVQAGGSLRLSCAASGSNFTWYAMGWYRQAPGKERELVADIDWSGGSTYYADSVKGRFTISRDNAKNTVYLQMNSLKPEDTAVYYCNAVFLFYEYWGQGTQVTVSS | polyreactivity (PSR sort gate) | low polyreactivity |
| QDQLVESGGGLVQAGGSLRLSCASSGRIFRWYAMGWYRQATGKERELVAAISWSGDSTYYADSVKGRFSISRDNAKNNVYLEMNSLKPEDTAVYYCNYVLYKSDYWGQGTQVTVSS | polyreactivity (PSR sort gate) | high polyreactivity |
| QVQLVESGGGLVQAGASLRLSCAASGSISKSYAMGWYRQAPGKERELVAAMSWRGGSTYADSVKGRFTISRDNAKNTVYLLMNCLKPEDSAVYYCAATNYGTFWGGQSERYDYWGQGTQVTVSS | polyreactivity (PSR sort gate) | low polyreactivity |
| QVQIVESGGGLVQAGGSLRLICAASGSTFGLNAMGWYRQAPGKERELVAAITRSDITNYADSVKGRFTISRDNAKNTVYLKLNSLKPEDTAVYYCNKTPDRHRRYFGYGYWGQGTLVTVSS | polyreactivity (PSR sort gate) | low polyreactivity |
| QVQLVESGGGLVQAGGSLRLSCAASVSIFAYYAMGLYRQAPGKERELVAAISRGGDTNYADSVKGRFTISRDNAKNTVYLQMNSLKPEDTAVSYCAATSYVRGYWYGYWGQGSQVTVSS | polyreactivity (PSR sort gate) | high polyreactivity |
| QVQLVESGGGLVQAGGSLRLSCAASGSIFTAYDMGWYRQAPGKERELVAAINVSAGTTYYADSVKGRFTISRDNAKNTVYLQMNSLKPEDTAVYYCAATFGGWGYVYVHYYYWGQGTQVTVSS | polyreactivity (PSR sort gate) | high polyreactivity |
| PVQLVESGGGLVQAGGSLRLSCAASGRTFPFYGMGWYRQAPGKERELVAAISISGGSTYYADSVKGRFTISRDNAKNTVYVQMNSLKPEDTAVYYCAAVGPRSYGFGNGYWGQGTQVTVSS | polyreactivity (PSR sort gate) | high polyreactivity |
| QVQLVDSGGGLVQAGGSLRLRCAASGLTFYTYAMGWYRQAPGKERELVAANRWRGGRTYYADSVKGRFTISRDNAKNTVYLQMNSLKPDDTAVYYCAADYSTLYKYDYWGQGTQVTVSS | polyreactivity (PSR sort gate) | low polyreactivity |
| QVQLVESGGRLVQAGGSLRLSCAASGFTIPHYAMGWYRQAPGKERELVAVISFSGGRTYYADSVKGRFTISRDNAKNTVYLQMNSLKPEDTAVYYCPAGFWDDYGKYYYWGQGTQVTVSS | polyreactivity (PSR sort gate) | high polyreactivity |

====

assay: yeast display, Sf9 membrane polyspecificity reagent, FACS + sequencing; frameworks hold sequencing errors
PARAMETER_MEASURED: polyreactivity (PSR sort gate)

| MACROMOLECULE_SEQUENCE | RESULT_VALUE |
| --- | --- |
| QVQLVESGGGLVQAGGSLRLSCAASGFTFAYYTMGWYRQAPGKERELVVVINRSGSTNYADSVKGRFTISRDNAKNTVYLQMNSLKPEDTAVYYCATGVALRYGYWGQGTQVTVSS | low polyreactivity |
| QVQVVESGGGLVQAGGSLRLSCAASGSTFTIYAMGWYRQAPGKERELVALITWSGGSTYYADSVKGRFTISRDNAKNTVYLQMNSLKPEDTAVYYCAADYYRPVPGGYYWGQGTQVTVSS | high polyreactivity |
| QVQLVESGGGLVQAGGSLRLSCAASGRTFFLYALGWYRQATGKERELFARISTSGGGTYYADSVKGRFTISRDHAKNTVYLQMISLKPEDTAVYYCAARTDRGQRRAGGYDFWGQGTQVTVSS | high polyreactivity |
| QVQLVESGVGLVQAVGSLRLSCAASGIIFPYYPMGWYRQAPGKERELVAAISTGGSTYYADSVKGRFTISRDNAKNTVYLQMNSLKPEDTAVYFCAARVARYRSTKRYDYWGQGTQVSVSS | high polyreactivity |
| QVQLVESGGGLVQAGGSLSLICAASGSTITYNAMGWYRQAPGKETELVAAIDWDGDTTYYADSVKGRFTISRDNAKNTVYLQMNSLKPEDTAVYYCAAEFYSLGKAIYEYWGQGTQVTVSS | high polyreactivity |
| QVQLVESGGGLVQAGGSLRLSCAASGRTFSYYTMVWYRQAPGKERELVARISNRGTNTYYADSVKGRFTISRDNAKNTVYLQMNSLKPEDTAVYYCAKYYYTSIVGYDSWGQGSQVTVSS | low polyreactivity |
| QVQLVESGGGLVQAGGSLRLSCAASGSTFYKNAMGWYRQAPGKEREFVAAIRSGDSTNYADSVKGRFTISRDNAKNTVYIQMNSLKPEDSAVYYCARDRPGDYAGYDYWGQGSQVTVSS | low polyreactivity |
| QVQLVESGGGLVQAGGSLRLSCAASGRIFIPYALGWYRQAPGKERELVAAISYRGGSTYYADSVKGRFTISRDNAKNTVYLQMNSLKPEDTAVYYCANYDYWGQGTQVTVSS | high polyreactivity |
| QVQLVESGGGLVQPGGSLRLSCAASGSTFEYNAMGWYRQAPGKERELVASSTNYADSVKGRFTISRDNAKNTVYLQMNSLKPEDTAVYYCAREQGVNRNHDYWGQGTQVTVSS | low polyreactivity |
| QVQLVESGGGLVQAGGSLRLSCAASGSIFRFYAMGWYRQAPGKERELVAGISRRGGTTYYADSVKGRFTISRDNAKNTVYLQMNSLKPEDTAVYYCAKRSFGYKSRPAFNYWGQGTQVTVSS | high polyreactivity |
| QVQLVESGGCLVQAGGSLRLSCAASGRTLHYYAMGWYIPAPGKVRELVARINWSGGSTYYADSVKGRFTISRDNAKKTVYLQMNSLKPEDTAVYYCAARKNRAYGYWGQGTQVTVSS | high polyreactivity |
